Assay: Cytotoxicity against African green monkey CV1 cells assessed as viable cells at 10 uM after 110 hrs by real-time cell analysis relative to control
Type: cell-based, CV-1
Details: chlorocebus aethiops, read-out: Activity
Each item that follows carries a reported viability at 110 h, 10 µM.

Here's what some known entries look like.
molecule.smiles | recorded.measurement
CCN(CC)CCCNCCn1c2ccccc2c2nc3ccccc3nc21 | 125%
CN(C)CCCNC(=O)Cn1c2ccccc2c2nc3ccccc3nc21 | 131%
CN(C)CCCNCCn1c2ccccc2c2nc3ccccc3nc21 | 110%
COc1ccc2c(c1)c1nc3ccccc3nc1n2CCN1CCCCC1 | 96.9%

Now let's try a different one.
Per the records, this compound ( c1ccc2nc3c(nc2c1)c1ccccc1n3CCNCCCN1CCOCC1 ) has viability at 110 h, 10 µM equal to 110%

The reported measurements were obtained from ChEMBL document CHEMBL4052722.
